All figures here come from the RNAGym collection of RNA variant scans (doi:10.7554/elife.80360).

Reported self-cleavage values for the following variants.
B1: Hairpin Ribozyme (parent)
chain: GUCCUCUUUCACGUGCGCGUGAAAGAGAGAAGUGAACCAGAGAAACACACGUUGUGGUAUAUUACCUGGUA

variants of: B1; experiment: self-cleavage, relative activity (ratio to wild type); higher = more cleavage; co-transcriptional
Just the number, please, no unit after it.

- PRIMARY_SEQUENCE: "GUCCUCUUUCACGUGCGCGUGAAAGAGAGAAGUGAACCAGAGAAACACAGGUUGUGGUAUAUUACCUGAUA [C50G G69A]"
  OBS_VALUE: 0.152
- PRIMARY_SEQUENCE: "UUCCUCUUUCACGUGCGCGUGAAAGAGAGAAGUGAACCAGAGAAACACACGUUGCGGUAUAUUACCUGGUA [G1U U55C]"
  OBS_VALUE: 0.217
- PRIMARY_SEQUENCE: "GUCCUCUUUCACGUGCUCGUGAAAGAGAGAAGUGAACCAGAGAAACACACGUUGUGGUAUAUUACCUGAUA [G17U G69A]"
  OBS_VALUE: 0.382
- PRIMARY_SEQUENCE: "GUCCUCUUUCACGUGCGCGUGAAAGAGAGAAGUGAACCAGCGAAAGACACGUUGUGGUAUAUUACCUGGUA [A41C C46G]"
  OBS_VALUE: 0.117
- PRIMARY_SEQUENCE: "GUCCUCUUUCACGUGCGCGUGAAAGAGAGAAGUGAACCAGAGAAACUCUCGUUGUGGUAUAUUACCUGGUA [A47U A49U]"
  OBS_VALUE: 0.149

[in] Record request: self-cleavage value, item GUCCUCUUUUACGUGCGCGUGAUAGAGAGAAGUGAACCAGAGAAACACACGUUGUGGUAUAUUACCUGGUA [C10U A23U]
[out] 0.652

[in] Requested field: self-cleavage. Item: GUCCUCUUUCACGUGCGCGUGAAAGAGAGAAGUGAACCAGAGAAACACACGUUGUGGUAUAAUACAUGGUA [U62A C66A]
[out] 0.12

[in] Query (variant): GUCCUCUUUUACGUGCGCGUGAAAGAGAGAAGUGAACCAGAGAAACACACGUUGUGGUAUAUUACCUGGCA [C10U U70C] ; field requested: self-cleavage
[out] 0.637

[in] Record request: self-cleavage value, item GUCCUCUUUCACGUGCGCGUGAAAGAGAGAAGUGAUCCAGAGAAACUCACGUUGUGGUAUAUUACCUGGUA [A36U A47U]
[out] 0.141

[in] Look at this variant and give its reported self-cleavage. GUCCUCUUUCACGUGCGCGUGAAAGAGAGAAGUGAACCAGAGAAACACACGUUGUGGUAUAUCAUCUGGUA [U63C C65U]
[out] 0.131

[in] What value of self-cleavage has been recorded for this entry: GUCCUCUUUCACGUGCGCGUGAAAGAGAGAAGUGAUCCAGAGAGACACACGUUGUGGUAUAUUACCUGGUA [A36U A44G]
[out] 0.183

[in] # self-cleavage lookup, item GUCCUCUUUAACGUGCGCGUGAAAGAGAGAGGUGAACCAGAGAAACACACGUUGUGGUAUAUUACCUGGUA [C10A A31G]
[out] 0.533
